target_desc: O-GlcNAcase (Homo sapiens)
Sequence (O60502 whole entry): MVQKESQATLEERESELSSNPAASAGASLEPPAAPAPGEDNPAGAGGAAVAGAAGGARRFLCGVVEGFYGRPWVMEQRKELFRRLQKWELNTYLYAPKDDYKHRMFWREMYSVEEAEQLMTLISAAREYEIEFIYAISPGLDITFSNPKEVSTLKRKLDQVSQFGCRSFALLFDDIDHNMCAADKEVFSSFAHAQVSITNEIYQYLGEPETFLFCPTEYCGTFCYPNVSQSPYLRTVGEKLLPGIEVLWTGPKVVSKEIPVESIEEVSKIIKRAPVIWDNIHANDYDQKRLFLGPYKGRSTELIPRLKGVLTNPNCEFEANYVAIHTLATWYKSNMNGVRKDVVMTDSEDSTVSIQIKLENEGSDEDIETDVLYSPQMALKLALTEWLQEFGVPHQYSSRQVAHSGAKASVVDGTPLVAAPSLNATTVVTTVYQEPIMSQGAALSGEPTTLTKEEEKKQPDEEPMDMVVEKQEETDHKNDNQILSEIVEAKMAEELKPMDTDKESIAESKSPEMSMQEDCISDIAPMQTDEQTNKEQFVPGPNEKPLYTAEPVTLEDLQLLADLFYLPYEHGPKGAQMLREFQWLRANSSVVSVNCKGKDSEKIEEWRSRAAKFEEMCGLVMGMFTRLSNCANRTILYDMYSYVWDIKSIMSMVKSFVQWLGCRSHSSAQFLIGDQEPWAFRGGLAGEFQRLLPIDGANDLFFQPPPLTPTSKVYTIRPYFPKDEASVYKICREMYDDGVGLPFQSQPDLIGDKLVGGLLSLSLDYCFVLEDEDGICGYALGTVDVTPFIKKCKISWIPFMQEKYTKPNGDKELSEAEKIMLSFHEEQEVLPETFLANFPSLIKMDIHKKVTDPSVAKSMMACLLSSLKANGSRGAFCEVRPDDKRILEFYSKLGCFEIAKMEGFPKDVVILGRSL
reported_property: pKi
Schema: pKi number; meaning minus log10 of the concentration expressed in molar units.

Field pKi (system: O-GlcNAcase (Homo sapiens)) for entry CC(=O)NC[C@H]1N[C@H](CO)[C@@H](O)[C@@H]1O [Compound 2] = 6.07
